Test system: 817829-284-R-J1-PDC complex spheroid viability;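 further: spheroids exposed to compounds for 7 days; 100% = DMSO vehicle-treated spheroids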
Test: Anticancer human tumor 817829-284-R-J1-PDC patient-derived colon adenocarcinoma cell line growth inhibition [POLQ]; active means viability on the fitted dose curve at most 10% of control; inactive means the rest
Conditions: second compound 1 µM; first compound 10 µM
Tick one outcome: 1 = active, 0 = inactive

CC1COCCN1c1cc(-c2ccnn2C)c2ccnc(-c3ccn[nH]3)c2n1 (stereo unspecified) + COC1C(OC(N)=O)C(O)C(Oc2ccc3c(O)c(NC(=O)c4ccc(O)c(CC=C(C)C)c4)c(=O)oc3c2C)OC1(C)C ... 1
CC(C)n1c(=O)n(C)c2cnc3cc(F)c(-c4ccc(OCCCN5CCCCC5)nc4)cc3c21 + Nc1ccc(C#CCN(C(=O)Cc2ncc(C(F)(F)F)cc2C(F)(F)F)c2ccc(F)cc2)nn1 ... 0
CNCc1ccc(-c2[nH]c3cc(F)cc4c3c2CCNC4=O)cc1 + Nc1ccc(C#CCN(C(=O)Cc2ncc(C(F)(F)F)cc2C(F)(F)F)c2ccc(F)cc2)nn1 ... 0

For CC1COCCN1c1cc(C2(S(C)(=N)=O)CC2)nc(-c2ccnc3[nH]ccc23)n1 (stereo unspecified) + COC1C(OC(N)=O)C(O)C(Oc2ccc3c(O)c(NC(=O)c4ccc(O)c(CC=C(C)C)c4)c(=O)oc3c2C)OC1(C)C , which call appears in the assay record? 1

Next compound up: O=c1[nH]cc(F)c(=O)[nH]1 + COC1C(OC(N)=O)C(O)C(Oc2ccc3c(O)c(NC(=O)c4ccc(O)c(CC=C(C)C)c4)c(=O)oc3c2C)OC1(C)C 0

Next compound up: COc1cccc2c1C(=O)c1c(O)c3c(c(O)c1C2=O)CC(O)(C(=O)CO)CC3OC1CC(N)C(O)C(C)O1 (stereo unspecified) + Nc1ccc(C#CCN(C(=O)Cc2ncc(C(F)(F)F)cc2C(F)(F)F)c2ccc(F)cc2)nn1 1

Next compound up: Nc1ccn(C2OC(CO)C(O)C2(F)F)c(=O)n1 (stereo unspecified) + Cc1cccc(N(C)C(=O)C2C(O)CCN2c2nc(C)cc(C(F)(F)F)c2C#N)c1 1

Next compound up: O=C(Nc1ccc(O)c(NS(=O)(=O)c2ccc(F)cc2)c1)c1ccc(-c2ccccc2)cc1 + Nc1ccc(C#CCN(C(=O)Cc2ncc(C(F)(F)F)cc2C(F)(F)F)c2ccc(F)cc2)nn1 0

Next compound up: CCc1cc2c(N3CCc4c(cc(Cn5ccnc5)cc4-c4cn(C)nc4C(F)(F)F)C3=O)cc(C)nc2c(OC)n1 + Cc1cccc(N(C)C(=O)C2C(O)CCN2c2nc(C)cc(C(F)(F)F)c2C#N)c1 0

src = PubChem BioAssay AID1963839
